Values from ChEMBL document CHEMBL3352183

# maps each entry to its IC50
# Test system: MDA-MB-361
# Assay Comment: Growth inhibition of human MDA-MB-361 cells
# Assay type: functional, cell-based
Please reply with the bare figure in µM and do not write the unit itself.

- C[C@@H]1C[C@H](C)C[C@H](C)[C@@H](O)CC(=O)O[C@H]([C@@H]2CCC[C@H]2C(=O)O)C/C=C/C=C(/CN)[C@H](O)[C@@H](C)C1: 2.2

From here, focus on the item given below.
IC50 for C[C@@H]1C[C@H](C)C[C@H](C)[C@@H](O)CC(=O)O[C@H]([C@@H]2CCC[C@H]2C(=O)O)C/C=C/C=C(/C#N)[C@H](O)[C@@H](C)C1 is 0.42
